Test: HDX of amide protons by NMR in CDCl3:CD3OD (8:2)
Conditions: 20% CD3OD in CDCl3
Starred links: 1 amine or outer side, 2 acyl side, 3 side chain; linkers in the order of their positions; H or OH if unused. Non-standard residues stand in square brackets, D forms with d. Residues, ends and D or L forms follow the SMILES beside them. X1 = CC(C)C[C@H](NC(=S)[C@H](Cc1ccc(O)cc1)N[*:1])C(=O)[*:2]; X2 = CC(C)C[C@H](NC(=S)[C@@H](CC(C)C)N[*:1])C(=O)[*:2]; X3 = CC(C)C[C@H](N[*:1])C(=S)N[C@H](CC(C)C)C(=O)[*:2]
readout-label: Half-life of Leu2 amide proton (HDX) (min)

- CC(C)C[C@@H]1NC(=O)[C@@H](CC(C)C)NC(=O)[C@H](CC(C)C)NC(=S)[C@H](Cc2ccc(O)cc2)NC(=O)[C@H]2CCCN2C(=O)[C@H](CC(C)C)NC1=O [10e] (cyclo(LL[dP][X1][dL])): 2

P. CC(C)C[C@@H]1NC(=O)[C@H](Cc2ccc(O)cc2)NC(=O)[C@H]2CCCN2C(=O)[C@H](CC(C)C)NC(=O)[C@H](CC(C)C)NC(=O)[C@@H](CC(C)C)NC1=O [compound 10, cyclo(-D-Leu^1-Leu-Leu-D-Pro-Tyr-Leu^6-)] (cyclo(LL[dP]YL[dL]))
Q. CC(C)C[C@@H]1NC(=O)[C@@H](CC(C)C)NC(=S)[C@H](CC(C)C)NC(=O)[C@H](Cc2ccc(O)cc2)NC(=O)[C@H]2CCCN2C(=O)[C@H](CC(C)C)NC1=O [10f] (cyclo(LL[dP]Y[X3]))
R. CC(C)C[C@@H]1NC(=O)[C@H](Cc2ccc(O)cc2)NC(=O)[C@H]2CCCN2C(=O)[C@H](CC(C)C)NC(=O)[C@H](CC(C)C)NC(=S)[C@@H](CC(C)C)NC1=O [10a] (cyclo(L[dP]YL[X2]))
Order the entries by their reported Half-life of Leu2 amide proton (HDX), beginning at the minimum. Record the ranking as a list of labels in the requested order.
P, R, Q

Source listed as paper PMC10539501.
